experimental system: CYCLIN K (nuclear staining in CAL-120 cells) (Homo sapiens, UniProt O75909)
Construct: endogenous in cells; host or cells: CAL-120 human breast cancer cells (DSMZ ACC 459)
Sequence (O75909 whole entry): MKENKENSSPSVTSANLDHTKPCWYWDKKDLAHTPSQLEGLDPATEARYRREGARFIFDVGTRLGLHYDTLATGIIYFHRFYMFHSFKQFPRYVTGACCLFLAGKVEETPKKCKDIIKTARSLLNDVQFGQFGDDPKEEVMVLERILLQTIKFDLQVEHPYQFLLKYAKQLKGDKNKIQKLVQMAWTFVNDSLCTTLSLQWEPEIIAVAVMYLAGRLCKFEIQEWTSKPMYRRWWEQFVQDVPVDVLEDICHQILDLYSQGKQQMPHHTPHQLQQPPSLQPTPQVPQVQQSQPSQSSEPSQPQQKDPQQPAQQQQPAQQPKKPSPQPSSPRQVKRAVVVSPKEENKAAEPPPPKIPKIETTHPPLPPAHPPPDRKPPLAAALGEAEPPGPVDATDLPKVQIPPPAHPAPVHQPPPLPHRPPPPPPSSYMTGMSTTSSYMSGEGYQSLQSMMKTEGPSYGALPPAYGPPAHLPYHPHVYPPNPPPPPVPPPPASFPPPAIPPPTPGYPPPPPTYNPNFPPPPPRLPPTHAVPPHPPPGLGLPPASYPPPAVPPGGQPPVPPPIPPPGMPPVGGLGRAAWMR
Sequence (Q9NYV4 whole entry partner): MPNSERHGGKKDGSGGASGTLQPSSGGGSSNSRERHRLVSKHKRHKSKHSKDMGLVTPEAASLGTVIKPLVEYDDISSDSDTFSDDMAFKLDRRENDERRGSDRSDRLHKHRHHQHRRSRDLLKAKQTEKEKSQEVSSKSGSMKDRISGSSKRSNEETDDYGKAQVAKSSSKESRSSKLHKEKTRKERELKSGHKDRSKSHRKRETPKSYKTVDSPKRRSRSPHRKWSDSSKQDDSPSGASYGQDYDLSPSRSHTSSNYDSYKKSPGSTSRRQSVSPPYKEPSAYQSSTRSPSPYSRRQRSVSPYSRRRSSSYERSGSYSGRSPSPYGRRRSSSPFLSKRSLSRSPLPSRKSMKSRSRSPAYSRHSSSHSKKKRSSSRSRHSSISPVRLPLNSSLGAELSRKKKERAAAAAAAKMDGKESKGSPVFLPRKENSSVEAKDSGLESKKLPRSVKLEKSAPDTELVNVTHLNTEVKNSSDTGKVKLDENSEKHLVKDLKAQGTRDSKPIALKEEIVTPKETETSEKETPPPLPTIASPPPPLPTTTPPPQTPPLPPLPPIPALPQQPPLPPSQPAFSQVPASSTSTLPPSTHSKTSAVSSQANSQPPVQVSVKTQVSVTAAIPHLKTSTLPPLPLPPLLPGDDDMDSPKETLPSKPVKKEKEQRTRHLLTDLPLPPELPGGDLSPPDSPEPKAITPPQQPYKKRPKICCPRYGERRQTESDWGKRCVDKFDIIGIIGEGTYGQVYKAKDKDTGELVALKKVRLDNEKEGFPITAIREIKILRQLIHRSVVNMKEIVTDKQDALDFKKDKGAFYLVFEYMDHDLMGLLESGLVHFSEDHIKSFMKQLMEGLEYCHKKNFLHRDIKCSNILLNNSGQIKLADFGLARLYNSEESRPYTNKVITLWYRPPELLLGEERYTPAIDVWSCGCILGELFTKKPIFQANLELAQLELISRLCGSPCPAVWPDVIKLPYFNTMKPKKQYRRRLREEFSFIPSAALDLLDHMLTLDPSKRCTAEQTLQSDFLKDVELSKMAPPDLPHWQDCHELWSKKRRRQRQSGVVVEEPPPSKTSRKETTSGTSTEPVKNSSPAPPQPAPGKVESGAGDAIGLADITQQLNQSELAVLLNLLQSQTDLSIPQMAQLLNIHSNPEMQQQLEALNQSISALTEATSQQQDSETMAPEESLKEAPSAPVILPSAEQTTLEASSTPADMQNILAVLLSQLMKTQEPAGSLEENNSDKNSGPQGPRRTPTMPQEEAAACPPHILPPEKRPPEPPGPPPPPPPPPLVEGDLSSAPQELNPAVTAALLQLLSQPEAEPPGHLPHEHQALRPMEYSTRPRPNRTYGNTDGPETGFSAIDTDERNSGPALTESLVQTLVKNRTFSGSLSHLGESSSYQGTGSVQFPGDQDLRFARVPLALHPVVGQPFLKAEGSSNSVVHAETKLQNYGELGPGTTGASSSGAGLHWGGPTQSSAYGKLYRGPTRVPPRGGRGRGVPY
assay explanation: CYCLIN K nuclear protein level: immunofluorescence high content analysis (CAL-120)
Format: cell-based
experimental parameters: 24 h, 50% reduction of nuclear CCNK staining intensity, median, read-out: CYCLIN K degradation IF, DC50-[mol/l] (median)

{"molecule": "CC1CN(C)CCN1c1nc(NCc2nc3ccccc3[nH]2)n2ncc(Br)c2n1 (single isomer, unassigned; enantiomer 2) [Example 261]", "DC50, nM": 1.23}
{"molecule": "CN1CC2CN(c3nc(NCc4nc5ccccc5[nH]4)n4ncc(Br)c4n3)CC2C1 (stereo not shown) [Example 240]", "DC50, nM": 1.09}
{"molecule": "Fc1ccc(-c2nnc(CNc3nc(N4CCOCC4)nc4c(Br)cnn34)[nH]2)cc1F [Example 99]", "DC50, nM": 3.05}
{"molecule": "CN(CC(C)(C)O)c1nc(NCc2nc3cc(Cl)c(Cl)cc3[nH]2)n2ncc(Br)c2n1 [Example 331]", "DC50, nM": 0.44}
